procedure details: Solubility of the compound
Type: physicochemical
Each entry below carries its recorded solubility.

For orientation, consider the following solved cases.
1) Cc1noc2c(F)c3c(cc12)CC1(C(=O)NC(=O)NC1=O)C1C(C)CC(C)CN31 (racemic) :: < 1 µM
2) Cc1noc2c(F)c3c(cc12)CC1(C(=O)NC(=O)NC1=O)C1C(C)OC(C)CN31 (racemic) :: > 1000 µM
3) C[C@@H]1CN2c3c(cc4c(Cl)noc4c3F)CC3(C(=O)NC(=O)NC3=O)[C@H]2[C@H](C)O1 :: > 1000 µM
4) Cc1noc2c(F)c3c(cc12)CC1(C(=O)NC(=O)NC1=O)[C@@H]1[C@@H](C)O[C@@H](C)CN31 :: > 1000 µM
5) Cc1noc2c(F)c3c(cc12)CC1(C(=O)NC(=O)NC1=O)[C@H]1[C@H](C)O[C@H](C)CN31 :: > 1000 µM

Query compound follows.
Exercise: Tell me the measured solubility of C[C@@H]1CN2c3c(cc4c(C(F)F)noc4c3F)CC3(C(=O)NC(=O)NC3=O)[C@H]2[C@H](C)O1 , please.
Solution: > 1000 µM
